Attribute: EC50
test system: IRF3 activation in PD-L1 low HEK293T STING reporter cell line; experiment: IRF3 activation in HEK293T STING reporter cells, low PD-L1; type: cell-based, human; details: 20 hours, read-out: IRF Activation EC50 (nM), Low PD-L1

{"testSmiles": "CCn1nc(C)cc1C(=O)Nc1nc2cc(C(N)=O)cc(OC)c2n1C/C=C/Cn1c(NC(=O)c2cc(C)nn2CC)nc2cc(C(N)=O)cc(OCCCNC(=O)[C@H](CCC(=O)O)NC(=O)[C@H](CCC(=O)O)NC(=O)[C@H](CCCNC(=N)N)NC(=O)[C@H](CCC(=O)O)NC(=O)CCCN3CCc4c(nc(C(=O)Nc5cccc(-c6cccc(NC(=O)c7nc8c(n7C)CCN(CCCC(=O)O)C8)c6Cl)c5Cl)n4C)C3)c21", "result": "50 to 200 nM"}
{"testSmiles": "CCn1nc(C)cc1C(=O)Nc1nc2cc(C(N)=O)cc(OC)c2n1C/C=C/Cn1c(NC(=O)c2cc(C)nn2CC)nc2cc(C(N)=O)cc(OCCCNC(=O)[C@H](CC(=O)O)NC(=O)[C@H](CC(=O)O)NC(=O)[C@H](CCCCN)NC(=O)[C@H](CC(=O)O)NC(=O)CCCN3CCc4c(nc(C(=O)Nc5cccc(-c6cccc(NC(=O)c7nc8c(n7C)CCN(CCCC(=O)O)C8)c6Cl)c5Cl)n4C)C3)c21", "result": "< 50 nM"}
{"testSmiles": "CCn1nc(C)cc1C(=O)Nc1nc2cc(C(N)=O)cc(OCCCNC(=O)OCCNC(=O)[C@H](CC(=O)O)NC(=O)[C@H](CC(=O)O)NC(=O)[C@H](CCCNC(=N)N)NC(=O)[C@H](CC(=O)O)NC(=O)CCCN3CCc4c(nc(C(=O)Nc5cccc(-c6cccc(NC(=O)c7nc8c(n7C)CCN(CCCC(=O)O)C8)c6Cl)c5Cl)n4C)C3)c2n1C/C=C/Cn1c2nc(-c3cc(C)nn3CC)ncc2c2cc(C(N)=O)cc(OC)c21", "result": "< 50 nM"}
{"testSmiles": "CCn1nc(C)cc1C(=O)Nc1nc2cc(C(N)=O)cc(OCCCNC(=O)[C@H](CC(=O)O)NC(=O)[C@H](CC(=O)O)NC(=O)[C@H](CCCNC(N)=O)NC(=O)[C@H](CC(=O)O)NC(=O)CCCN3CCc4c(nc(C(=O)Nc5cccc(-c6cccc(NC(=O)c7nc8c(n7C)CCN(CCCC(=O)O)C8)c6Cl)c5Cl)n4C)C3)c2n1C/C=C/Cn1c2nc(-c3cc(C)nn3CC)ncc2c2cc(C(N)=O)cc(OC)c21", "result": "50 to 200 nM"}
{"testSmiles": "CCn1nc(C)cc1C(=O)Nc1nc2cc(C(N)=O)cc(OCCCNC(=O)[C@H](CC(=O)O)NC(=O)[C@H](CC(=O)O)NC(=O)[C@H](CCCNC(=N)N)NC(=O)[C@H](CC(=O)O)NC(=O)[C@H](CC(=O)O)NC(=O)[C@H](CC(=O)O)NC(=O)[C@H](CCCNC(=N)N)NC(=O)[C@H](CC(=O)O)NC(=O)CCCN3CCc4c(nc(C(=O)Nc5cccc(-c6cccc(NC(=O)c7nc8c(n7C)CCN(CCCC(=O)O)C8)c6Cl)c5Cl)n4C)C3)c2n1C/C=C/Cn1c2nc(-c3cc(C)nn3CC)ncc2c2cc(C(N)=O)cc(OC)c21", "result": "< 50 nM"}
{"testSmiles": "CCn1nc(C)cc1C(=O)Nc1nc2cc(C(N)=O)cc(OC)c2n1C/C=C/Cn1c(NC(=O)c2cc(C)nn2CC)nc2cc(C(N)=O)cc(OCCCNC(=O)[C@H](CC(=O)O)NC(=O)[C@H](CC(=O)O)NC(=O)CCCN3CCc4c(nc(C(=O)Nc5cccc(-c6cccc(NC(=O)c7nc8c(n7C)CCN(CCCC(=O)O)C8)c6Cl)c5Cl)n4C)C3)c21", "result": "50 to 200 nM"}
{"testSmiles": "CCn1nc(C)cc1C(=O)Nc1nc2cc(C(N)=O)cc(OC)c2n1C/C=C/Cn1c(NC(=O)c2cc(C)nn2CC)nc2cc(C(N)=O)cc(OCCCNC(=O)[C@H](CC(=O)O)NC(=O)[C@H](CC(=O)O)NC(=O)[C@H](CC(=O)O)NC(=O)[C@H](CC(=O)O)NC(=O)[C@H](CC(=O)O)NC(=O)CCCN3CCc4c(nc(C(=O)Nc5cccc(-c6cccc(NC(=O)c7nc8c(n7C)CCN(CCCC(=O)O)C8)c6Cl)c5Cl)n4C)C3)c21", "result": "50 to 200 nM"}
{"testSmiles": "CCn1nc(C)cc1C(=O)Nc1nc2cc(C(N)=O)cc(OCCCNC(=O)[C@H](CC(=O)O)NC(=O)[C@H](CC(=O)O)NC(=O)[C@H](CCCNC(=N)N)NC(=O)[C@H](CC(=O)O)NC(=O)CCCN3CCc4c(nc(C(=O)Nc5cccc(-c6cccc(NC(=O)c7nc8c(n7C)CCN(CCCC(=O)O)C8)c6Cl)c5Cl)n4C)C3)c2n1C/C=C/Cn1c2nc(-c3cc(C)nn3CC)ncc2c2cc(C(N)=O)cc(OC)c21", "result": "50 to 200 nM"}
{"testSmiles": "CCn1nc(C)cc1C(=O)Nc1nc2cc(C(N)=O)cc(OCCCNC(=O)CCNC(=O)OCc3ccc(NC(=O)[C@H](CCCNC(N)=O)NC(=O)[C@@H](NC(=O)Cn4cc(CCNC(=O)[C@H](CC(=O)O)NC(=O)[C@H](CC(=O)O)NC(=O)[C@H](CCCNC(=N)N)NC(=O)[C@H](CC(=O)O)NC(=O)CCCN5CCc6c(nc(C(=O)Nc7cccc(-c8cccc(NC(=O)c9nc%10c(n9C)CCN(CCCC(=O)O)C%10)c8Cl)c7Cl)n6C)C5)nn4)C(C)C)cc3)c2n1C/C=C/Cn1c2nc(-c3cc(C)nn3CC)ncc2c2cc(C(N)=O)cc(OC)c21", "result": "200 to 1000 nM"}
{"testSmiles": "CCn1nc(C)cc1C(=O)Nc1nc2cc(C(N)=O)cc(OC)c2n1C/C=C/Cn1c(NC(=O)c2cc(C)nn2CC)nc2cc(C(N)=O)cc(OCCCNC(=O)[C@H](CC(=O)O)NC(=O)[C@H](CC(=O)O)NC(=O)[C@H](CC(=O)O)NC(=O)[C@H](CCCNC(=N)N)NC(=O)CCCN3CCc4c(nc(C(=O)Nc5cccc(-c6cccc(NC(=O)c7nc8c(n7C)CCN(CCCC(=O)O)C8)c6Cl)c5Cl)n4C)C3)c21", "result": "50 to 200 nM"}

From here, focus on the item given below.
Form: item `CCn1nc(C)cc1C(=O)Nc1nc2cc(C(N)=O)cc(OC)c2n1C/C=C/Cn1c(NC(=O)c2cc(C)nn2CC)nc2cc(C(N)=O)cc(OCCCNC(=O)CCNC(=O)OCc3ccc(NC(=O)[C@H](CCCNC(N)=O)NC(=O)[C@@H](NC(=O)CCCN4CCc5c(nc(C(=O)Nc6cccc(-c7cccc(NC(=O)c8nc9c(n8C)CCN(CCCC(=O)O)C9)c7Cl)c6Cl)n5C)C4)C(C)C)cc3)c21` ; test system IRF3 activation in PD-L1 low HEK293T STING reporter cell line; EC50: 50 to 200 nM
